Where do these numbers come from? They come from patent US9676757B2.

# Tested target: Nav1.6 (Homo sapiens, UniProt Q9UQD0)
# Sequence (Q9UQD0 whole entry): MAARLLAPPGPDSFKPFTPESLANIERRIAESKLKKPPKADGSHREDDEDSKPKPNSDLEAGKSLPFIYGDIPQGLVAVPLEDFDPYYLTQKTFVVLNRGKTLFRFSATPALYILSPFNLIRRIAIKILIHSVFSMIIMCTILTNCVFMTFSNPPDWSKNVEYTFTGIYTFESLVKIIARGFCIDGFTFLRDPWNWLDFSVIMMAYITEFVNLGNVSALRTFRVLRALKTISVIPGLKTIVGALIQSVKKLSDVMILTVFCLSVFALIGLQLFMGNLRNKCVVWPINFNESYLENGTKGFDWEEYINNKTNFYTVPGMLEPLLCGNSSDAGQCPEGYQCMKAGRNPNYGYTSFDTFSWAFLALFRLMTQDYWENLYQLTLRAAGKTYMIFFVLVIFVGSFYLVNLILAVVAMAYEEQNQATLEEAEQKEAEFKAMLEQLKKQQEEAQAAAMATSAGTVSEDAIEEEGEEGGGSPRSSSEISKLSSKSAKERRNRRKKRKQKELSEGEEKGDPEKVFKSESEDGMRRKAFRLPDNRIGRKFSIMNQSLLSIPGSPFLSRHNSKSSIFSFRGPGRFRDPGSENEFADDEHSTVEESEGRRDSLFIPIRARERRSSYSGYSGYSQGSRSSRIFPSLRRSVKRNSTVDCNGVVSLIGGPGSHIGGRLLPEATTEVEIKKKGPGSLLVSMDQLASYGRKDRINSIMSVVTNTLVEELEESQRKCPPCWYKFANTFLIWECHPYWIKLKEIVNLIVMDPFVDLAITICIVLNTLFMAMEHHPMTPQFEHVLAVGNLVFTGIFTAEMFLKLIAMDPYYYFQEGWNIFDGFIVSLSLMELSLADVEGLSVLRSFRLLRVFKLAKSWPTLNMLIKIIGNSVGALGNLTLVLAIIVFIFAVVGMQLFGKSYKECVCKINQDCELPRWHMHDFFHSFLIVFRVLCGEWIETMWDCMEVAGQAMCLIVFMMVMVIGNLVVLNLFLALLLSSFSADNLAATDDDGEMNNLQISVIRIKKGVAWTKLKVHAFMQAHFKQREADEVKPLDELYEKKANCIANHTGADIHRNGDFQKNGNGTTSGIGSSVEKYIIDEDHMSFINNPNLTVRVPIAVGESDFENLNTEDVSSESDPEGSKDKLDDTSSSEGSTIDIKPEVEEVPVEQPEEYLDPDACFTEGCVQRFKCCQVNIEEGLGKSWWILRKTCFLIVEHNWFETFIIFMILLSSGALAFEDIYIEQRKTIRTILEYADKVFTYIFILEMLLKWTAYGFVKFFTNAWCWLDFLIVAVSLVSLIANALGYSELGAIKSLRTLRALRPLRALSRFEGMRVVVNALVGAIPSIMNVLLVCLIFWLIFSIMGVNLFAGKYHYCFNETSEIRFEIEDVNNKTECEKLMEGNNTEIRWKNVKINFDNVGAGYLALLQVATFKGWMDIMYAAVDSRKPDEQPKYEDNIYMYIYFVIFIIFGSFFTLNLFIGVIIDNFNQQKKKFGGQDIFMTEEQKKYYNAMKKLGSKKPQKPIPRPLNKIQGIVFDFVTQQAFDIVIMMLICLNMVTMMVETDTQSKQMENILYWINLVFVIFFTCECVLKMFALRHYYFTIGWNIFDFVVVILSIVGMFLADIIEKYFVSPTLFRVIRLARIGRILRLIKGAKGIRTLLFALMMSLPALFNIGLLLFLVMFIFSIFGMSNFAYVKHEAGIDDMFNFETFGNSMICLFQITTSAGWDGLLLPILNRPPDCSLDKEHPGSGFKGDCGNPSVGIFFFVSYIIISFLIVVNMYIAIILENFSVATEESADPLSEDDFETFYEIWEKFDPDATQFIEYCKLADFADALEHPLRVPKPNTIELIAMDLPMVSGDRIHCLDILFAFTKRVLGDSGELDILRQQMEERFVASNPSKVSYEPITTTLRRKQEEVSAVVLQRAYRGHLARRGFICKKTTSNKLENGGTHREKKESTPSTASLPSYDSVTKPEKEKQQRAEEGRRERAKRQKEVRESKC
# Experiment: Nav two-pulse protocol, IonWorks Quattro electrophysiology
# Assay type: cell-based
# Condition summary: -120 mV to 0 mV, compound incubated 300 s, read-out: Nav1.6 Tonic
pIC50: −log10 of the molar value.
Metric: pIC50

Cc1ccc(F)cc1CNC(=O)C1CCN(Cc2cccc(Oc3ccccc3)c2)C1 (stereo not shown) : 4.70 to 5.00

Would you kindly share the measured pIC50 for O=C(NCc1ccccn1)C1CCN(Cc2cccc(Oc3ccc(F)cc3)c2)C1 (stereo not shown) ?
< 4.70

Also need O=C(NCc1ncccc1F)C1CCN(Cc2cccc(OCC(F)(F)F)c2)C1 (stereo not shown) , thanks.
< 4.70

Also need O=C(NCc1ccccn1)C1CCN(Cc2cccc(Oc3ccc(F)c(F)c3)c2)C1 (stereo not shown) , thanks.
< 4.70

---

# Tested target: Nav1.6 (Homo sapiens)
# Experiment: Nav two-pulse protocol, IonWorks Quattro electrophysiology
# Assay type: cell-based
# Condition summary: -120 mV to 0 mV, compound incubated 300 s, read-out: Nav1.6 inac
// reported IC50 for each item listed

CN1CCN(C(=O)C2CCN(Cc3cccc(Oc4ccccc4)c3)C2)CC1=O (stereo not shown) [Compound 104] : 1000 to 5000 nM
O=C(NCc1ccccn1)C1(Cl)CCN(Cc2cccc(Oc3ccccc3)c2)C1=O (stereo not shown) [Compound 95] : > 5000 nM
O=C(NCc1ccccn1)C1CCN(Cc2cccc(Oc3ccc(F)c(F)c3)c2)C1 (stereo not shown) [Compound 3] : 1000 to 5000 nM
COc1cccc(-c2nc(C3CCN(Cc4cccc(OCC(C)C)c4)C3)no2)n1 (stereo not shown) [Compound 56] : 1000 to 5000 nM
Cc1ccc(Oc2cccc(CN3CCC(C(=O)NCc4ccccn4)C3)c2)cc1 (stereo not shown) [Compound 1] : < 1000 nM
CC(C)COc1cccc(CN2CCC(COCc3ccccn3)C2)c1 (stereo not shown) [Compound 35] : 1000 to 5000 nM

Would you kindly share the measured IC50 for O=C(NCc1cccs1)C1CCN(Cc2cccc(Oc3ccccc3)c2)C1 (stereo not shown) [Compound 88] ?
< 1000 nM
